B1: library; numbered along this chain (parent)
chain: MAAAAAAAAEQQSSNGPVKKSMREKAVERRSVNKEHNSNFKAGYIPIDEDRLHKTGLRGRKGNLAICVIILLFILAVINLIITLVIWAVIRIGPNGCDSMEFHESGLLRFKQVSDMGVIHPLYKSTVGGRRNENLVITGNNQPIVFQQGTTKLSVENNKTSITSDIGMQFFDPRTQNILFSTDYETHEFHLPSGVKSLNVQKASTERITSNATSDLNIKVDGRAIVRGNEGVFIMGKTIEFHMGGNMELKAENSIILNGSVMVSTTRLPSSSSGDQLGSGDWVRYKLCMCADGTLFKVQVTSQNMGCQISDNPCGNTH

- Variants of: B1
- assay_overview: SGCB cell-surface expression functional score (HA stain, bin4 vs bin1, normalised to synonymous) (log10 ratio); higher = more cell-surface SGCB (functional)
Listing: SGCB cell-surface expression functional score (log10) of selected variants
outcome_measure: SGCB cell-surface expression functional score (log10)

R109W 0.09
T163K -0.3
N246F -1.49
I45H 0.03
R30Q 0.15
K19N 0.14
D275S -0.06
Y44F 0.02
W87C -0.23
E35K 0.23
V68L -0.04
I119Y -1.14
H242G 0.87
K152M -0.19
T186M -1.55
Q201C 0.43
K250N 0.48
A6H -0.23
F170V 0.47
Q201K 0.07
Q176F -0.66
N141H -0.24
